Source of measurements: patent US20100298141A1

Test system: eastern black nightshade
Measurement Notes: Test C pre-/postemergence test
Assay type: in vivo, Solanum ptycanthum
Experimental Setup: preemergence, 250 g ai/ha; scale 0 (no effect) to 100 (complete control)
Description: Seeds of plant species selected from blackgrass (Alopecurus myosuroides), downy brome (Bromus tectorum), green foxtail (Setaria viridis), Italian ryegrass (Lolium multiflorum), wheat (Triticum aestivum), wild oat (Avena fatua), catchweed bedstraw (Galium aparine), Russian thistle (Salsola kali), […] […]
Kindly state Nightshade plant response rating for each of the entries shown.
Numbers only.

Observe how each entry below is paired with its result.
Compound	Nightshade plant response rating
CC(C)c1cc[n+]([O-])c([S+]([O-])Cc2c(C(F)(F)F)nn(C)c2OC(F)F)c1 (centres unmarked)	100
Cc1cc[n+]([O-])c(S(=O)(=O)Cc2c(C(F)(F)C(F)(F)F)nn(C)c2OCC(F)(F)F)c1	100
Cc1cc[n+]([O-])c(S(=O)(=O)C(Cl)c2c(C(F)(F)F)nn(C)c2OCC(F)(F)F)c1 (racemic)	90

Quick one: give me Nightshade plant response rating for each item below, same order please.
1. Cn1nc(C(F)(F)F)c(C[S+]([O-])c2ccc(F)c[n+]2[O-])c1Cl (centres unmarked)
2. Cn1nc(C(F)(F)F)c(C(Cl)S(=O)(=O)c2cccc[n+]2[O-])c1OC(F)F (centres unmarked)
3. Cn1nc(C(F)(F)C(F)(F)F)c(C[S+]([O-])c2cccc[n+]2[O-])c1OCC(F)(F)F (centres unmarked)
4. CCc1cc[n+]([O-])c(S(=O)(=O)Cc2c(C(F)(F)F)nn(C)c2OC(F)F)c1
5. Cn1nc(C(F)(F)F)c(C[S+]([O-])c2ccc(F)c[n+]2[O-])c1OC(F)F (centres unmarked)

Result:
[85, 100, 100, 98, 100]

* * *

Test system: common groundsel
Measurement Notes: Test F preemergence test
Format: in vivo, Senecio vulgaris
Experimental Setup: 16 g ai/ha, preemergence; scale 0 to 100
Measurement Type: Plant response rating, Groundsel
Give bare numbers.

Compound	Assay Result
CCn1nc(C(F)(F)F)c(CS(=O)(=O)c2cccc[n+]2[O-])c1OCC(F)(F)F	0

Hi! Can you tell me Plant response rating, Groundsel for each of these compounds?
1. Cn1nc(C(F)(F)C(F)(F)F)c(C[S+]([O-])c2cccc[n+]2[O-])c1OCC(F)(F)F (stereo not drawn)
2. CC(Oc1c(C[S+]([O-])c2ccc(Cl)c[n+]2[O-])c(C(F)(F)F)nn1C)C(F)(F)F (stereo not drawn)
3. Cn1nc(C(F)(F)F)c(C[S+]([O-])c2ccc(Cl)c[n+]2[O-])c1OCC(F)F (stereo not drawn)
4. CC(Oc1c(CS(=O)(=O)c2cccc[n+]2[O-])c(C(F)(F)F)nn1C)C(F)(F)F (stereo not drawn)
5. CC(Oc1c(C[S+]([O-])c2cccc[n+]2[O-])c(C(F)(F)F)nn1C)C(F)(F)F (stereo not drawn)

Result:
95
0
0
0
0

* * *

Exercise: for every item that follows, state its recorded Plant response rating, Ducksalad.
Test system: duck salad
Measurement Notes: Test C flooded paddy test
Type: in vivo, Heteranthera limosa
Experimental Setup: Flood, 62 g ai/ha; scale 0 to 100, 0 no effect, 100 complete control; 13 to 15 days
Numbers only.

Answered examples (6):
Molecule	Plant response rating, Ducksalad
Cn1nc(C(F)(F)F)c(C[S+]([O-])c2cccc[n+]2[O-])c1Cl (stereo not shown)	0
CC(c1c(C(F)(F)F)nn(C)c1OC(F)F)S(=O)(=O)c1cc(C(C)(C)C)cc[n+]1[O-] (racemic)	65
Cc1cc[n+]([O-])c([S+]([O-])C(C)c2c(C(F)(F)F)nn(C)c2Cl)c1 (mixture of isomers)	80
Cn1nc(C(F)(F)F)c(C[S+]([O-])c2ccc(Cl)c[n+]2[O-])c1Cl (racemic)	80
Cn1nc(C(F)(F)F)c(C[S+]([O-])c2cc(Br)cc[n+]2[O-])c1Cl (racemic)	60
Cc1cc[n+]([O-])c([S+]([O-])Cc2c(C(F)(F)F)nn(C)c2Cl)c1 (racemic)	0

// for each molecule below, give its Plant response rating, Ducksalad
1. Cn1nc(C(F)(F)F)c(CS(=O)(=O)c2ccc(Cl)c[n+]2[O-])c1Cl
2. [O-][n+]1ccccc1[S+]([O-])C(Cl)c1c(C(F)(F)F)nn(CC(F)(F)F)c1Cl (stereo not shown)

Result:
1. 0
2. 40

* * *

Would you kindly list Plant response rating, Wheat for each of these compounds?
System: wheat
Measurement Notes: Test A pre-/postemergence greenhouse test
Assay type: in vivo, Triticum aestivum
Experimental Setup: Preemergence, 500 g ai/ha; 0 to 100 scale where 0 is no effect and 100 is complete control
One number for each entry.

Below: 7 compounds and their reported Plant response rating, Wheat.
Compound	Measurement Type	Assay Result
Cn1nc(C(F)(F)F)c(C[S+]([O-])c2ccc(F)c[n+]2[O-])c1Cl (centres unmarked)	Plant response rating, Wheat	70
Cn1nc(C(F)(F)F)c(C[S+]([O-])c2c(F)ccc[n+]2[O-])c1Cl (centres unmarked)	Plant response rating, Wheat	0
CCn1nc(C(F)(F)F)c(CS(=O)(=O)c2cc(C)cc[n+]2[O-])c1OCC(F)(F)F	Plant response rating, Wheat	70
Cn1nc(C(F)(F)F)c(C[S+]([O-])c2cccc[n+]2[O-])c1OC(F)F (centres unmarked)	Plant response rating, Wheat	100
Cn1nc(C(F)(F)F)c(C[S+]([O-])c2cc(C(F)(F)F)cc[n+]2[O-])c1Cl (racemic)	Plant response rating, Wheat	50
Cn1nc(C(F)(F)F)c(C[S+]([O-])c2cccc[n+]2[O-])c1OCC(F)(F)C(F)(F)F (centres unmarked)	Plant response rating, Wheat	100
Cn1nc(C(F)(F)F)c(CS(=O)(=O)c2cc(F)cc[n+]2[O-])c1Cl	Plant response rating, Wheat	0

# input for lookup
Query: Tell me the measured Plant response rating, Wheat of CCn1nc(C(F)(F)F)c(C[S+]([O-])c2cc(C)cc[n+]2[O-])c1OCC(F)(F)F (racemic) , please.
Result: 100

* * *

Test system: chickweed
Measurement Notes: Test C postemergence test
Format: in vivo, Stellaria media
Experimental Setup: 31 g ai/ha
Measurement Type: Plant response rating (0 to 100), Chickweed
Answers are plain numbers.

Molecule	Assay Result
Cn1nc(C(F)(F)F)c(C[S+]([O-])c2cccc[n+]2[O-])c1OC(F)F (stereo not shown)	10
Cn1nc(C(F)(F)F)c(C[S+]([O-])c2ccc(Cl)c[n+]2[O-])c1OCC(F)(F)F (racemic)	0
[O-][n+]1cc(Cl)ccc1[S+]([O-])Cc1c(C(F)(F)F)nn(CC(F)(F)F)c1Cl (stereo not shown)	0

Your task in this section: give Plant response rating (0 to 100), Chickweed for each listed record.
1. Cc1cc[n+]([O-])c(S(=O)(=O)Cc2c(C(F)(F)F)nn(C)c2OC(F)F)c1
2. Cc1cc[n+]([O-])c([S+]([O-])Cc2c(C(F)(F)F)nn(C)c2OC(F)F)c1 (stereo not shown)
3. CCn1nc(C(F)(F)F)c(CS(=O)(=O)c2cc(C)cc[n+]2[O-])c1OCC(F)(F)F
4. CCn1nc(C(F)(F)F)c(C[S+]([O-])c2cccc[n+]2[O-])c1OCC(F)(F)F (racemic)

Result:
1. 0
2. 50
3. 0
4. 30

* * *

System: yellow nutsedge
Measurement Notes: Test C pre-/postemergence test
Assay type: in vivo, Cyperus esculentus
Experimental Setup: Postemergence, 250 g ai/ha; scale 0 to 100, 0 no effect, 100 complete control
Description: Seeds of plant species selected from blackgrass (Alopecurus myosuroides), downy brome (Bromus tectorum), green foxtail (Setaria viridis), Italian ryegrass (Lolium multiflorum), wheat (Triticum aestivum), wild oat (Avena fatua), catchweed bedstraw (Galium aparine), Russian thistle (Salsola kali), […] […]
Provide the recorded Plant response rating, Nutsedge, Yellow for the entries that follow.
Give bare numbers.

Solved cases below.
Molecule	Assay Result
Cn1nc(C(F)(F)F)c(C[S+]([O-])c2ccc(F)c[n+]2[O-])c1OCC(F)(F)F (stereo not shown) [Compound 67]	0
CC(Oc1c(CS(=O)(=O)c2cccc[n+]2[O-])c(C(F)(F)F)nn1C)C(F)(F)F (stereo not shown) [Compound 82]	0
Cn1nc(C(F)(F)C(F)(F)F)c(C[S+]([O-])c2cccc[n+]2[O-])c1OCC(F)(F)F (stereo not shown) [Compound 79]	10

Query: I have this molecule here, Cn1nc(C(F)(F)F)c(C[S+]([O-])c2cccc[n+]2[O-])c1OCC(F)(F)C(F)(F)F (stereo not shown) [Compound 78] , and I need its recorded Plant response rating, Nutsedge, Yellow.
Result: 0

* * *

Could you please report measured Oat, Wild plant response rating for the items listed next?
Tested on: wild oat
Measurement Notes: Test C pre-/postemergence test
Type: in vivo, Avena fatua
Experimental Setup: 62 g ai/ha, preemergence; scale 0 (no effect) to 100 (complete control)
Numbers only.

Molecule	Oat, Wild plant response rating
Cn1nc(C(F)(F)F)c(C[S+]([O-])c2ccc(Br)c[n+]2[O-])c1OC(F)F (racemic)	70
Cc1cc[n+]([O-])c(S(=O)(=O)Cc2c(C(F)(F)F)nn(C)c2OC(F)F)c1	65
Cc1cc[n+]([O-])c([S+]([O-])Cc2c(C(F)(F)F)nn(C)c2OC(F)F)c1 (centres unmarked)	85

Give Oat, Wild plant response rating for each of the items listed below.
1. Cc1cc[n+]([O-])c(S(=O)(=O)C(C)c2c(C(F)(F)F)nn(C)c2Cl)c1 (racemic)
2. Cn1nc(C(F)(F)F)c(C[S+]([O-])c2cccc[n+]2[O-])c1OC(F)F (centres unmarked)

Result:
1: 0; 2: 40
